molecular target: nuclear binding of tritiated dexamethazone (glucocorticoid receptors) (Mus musculus); construct: The liver, brain, spleen and thymus are excised and the cells of each organ are recovered; from tissue; host or cells: isolated cells of liver, brain, spleen and thymus of metyrapone-treated C57BL/6 mice; assay: Displacement of the nuclear binding of tritiated dexamethazone in isolated liver, brain, thymus and spleen cells; parameters: species or system C57BL/6 mouse; conditions: liver cells; 100-fold excess of steroid over 2-80 nM 3H-dexamethazone; no competitor = zero, unlabelled dexamethazone = 100; mean of triplicate; 60 min
readoutType: Displacement coefficient for nuclear binding of tritiated dexamethazone, Liver

C[C@]12CC[C@H](O)C[C@@H]1C[C@@H](O)[C@@H]1[C@@H]2CC[C@]2(C)C(=O)CC[C@@H]12 :: 102
C[C@]12CC[C@H](O)CC1=CC(=O)[C@@H]1[C@@H]2CC[C@]2(C)C(=O)CC[C@@H]12 [Steroid 7-oxo-DHEA, 3-beta-hydroxy-5-androsten-7,17-dione] :: 28
C[C@]12CC[C@H](O)C[C@@H]1[C@@H](O)C[C@@H]1[C@@H]2CC[C@]2(C)C(=O)CC[C@@H]12 :: 63

----------
Reported Displacement coefficient for nuclear binding of tritiated dexamethazone, Liver by item:
biological target: nuclear binding of tritiated dexamethazone (glucocorticoid receptors) (Mus musculus); construct: The liver, brain, spleen and thymus are excised and the cells of each organ are recovered; from tissue; host or cells: isolated cells of liver, brain, spleen and thymus of metyrapone-treated C57BL/6 mice; assay: Displacement of the nuclear binding of tritiated dexamethazone in isolated liver, brain, thymus and spleen cells; parameters: species or system C57BL/6 mouse; conditions: liver cells; 100-fold excess of steroid over 2-80 nM 3H-dexamethazone; no competitor = zero, unlabelled dexamethazone = 100; mean of triplicate; 60 min
readoutType: Displacement coefficient for nuclear binding of tritiated dexamethazone, Liver

C[C@]12CC[C@H](O)CC1=C[C@@H](O)[C@@H]1[C@@H]2CC[C@]2(C)C(=O)CC[C@@H]12 [7-hydroxy-DHEA] :: 95
C[C@]12CC[C@H](O)C[C@@H]1CC(=O)[C@@H]1[C@@H]2CC[C@]2(C)C(=O)CC[C@@H]12 :: 84
CC(=O)[C@H]1CC[C@H]2[C@@H]3[C@H](O)C=C4C[C@@H](O)CC[C@]4(C)[C@H]3CC[C@]12C [7-hydroxy-PREG, 7-alpha-hydroxy-PREG] :: 34

----------
Reported Displacement coefficient for nuclear binding of tritiated dexamethazone, Liver by item:
Biological target: nuclear binding of tritiated dexamethazone (glucocorticoid receptors) (Mus musculus, UniProt P06537)
Construct: The liver, brain, spleen and thymus are excised and the cells of each organ are recovered; from tissue; host or cells: isolated cells of liver, brain, spleen and thymus of metyrapone-treated C57BL/6 mice
Sequence (P06537 whole entry): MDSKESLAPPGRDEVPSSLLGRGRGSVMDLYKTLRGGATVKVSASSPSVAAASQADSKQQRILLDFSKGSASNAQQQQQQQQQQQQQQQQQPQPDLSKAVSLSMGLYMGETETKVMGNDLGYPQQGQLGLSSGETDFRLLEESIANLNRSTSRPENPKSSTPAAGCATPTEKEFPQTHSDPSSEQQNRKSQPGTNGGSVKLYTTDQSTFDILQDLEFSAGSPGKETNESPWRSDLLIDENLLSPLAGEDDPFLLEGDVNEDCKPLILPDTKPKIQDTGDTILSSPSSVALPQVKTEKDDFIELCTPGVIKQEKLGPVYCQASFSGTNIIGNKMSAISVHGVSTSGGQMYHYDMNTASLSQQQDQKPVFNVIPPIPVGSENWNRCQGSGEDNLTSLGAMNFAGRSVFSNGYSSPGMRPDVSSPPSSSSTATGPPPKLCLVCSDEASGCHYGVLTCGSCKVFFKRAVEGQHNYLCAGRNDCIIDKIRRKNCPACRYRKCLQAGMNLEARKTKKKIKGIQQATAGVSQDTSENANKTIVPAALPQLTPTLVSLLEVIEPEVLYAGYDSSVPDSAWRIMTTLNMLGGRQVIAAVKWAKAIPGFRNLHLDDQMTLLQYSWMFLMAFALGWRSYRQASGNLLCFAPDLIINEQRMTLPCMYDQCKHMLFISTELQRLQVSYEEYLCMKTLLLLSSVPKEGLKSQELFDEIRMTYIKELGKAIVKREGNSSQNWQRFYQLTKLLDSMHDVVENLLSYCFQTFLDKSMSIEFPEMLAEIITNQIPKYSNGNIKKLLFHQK
Assay: Displacement of the nuclear binding of tritiated dexamethazone in isolated liver, brain, thymus and spleen cells
Set-up: species or system C57BL/6 mouse
Conditions: liver cells; 100-fold excess of steroid over 2-80 nM 3H-dexamethazone; no competitor = zero, unlabelled dexamethazone = 100; mean of triplicate; 60 min
Protocol: The isolated hepatocytes are incubated for 1 hour at room temperature with increasing concentrations (2-80 nM) of ^3 H-dexamethazone (DEX*). […] The hepatocyte nuclei are then isolated and purified and the radioactivity corresponding to the DEX* still bound is measured and expressed in cpm/10 ug of DNA. The area under the curve DEX* corresponds to zero displacement of the radioactivity. […] The nuclei are recovered and their radioactive content measured as described by the authors cited above. […]
readoutType: Displacement coefficient for nuclear binding of tritiated dexamethazone, Liver

C[C@]12CC[C@H]3[C@@H]([C@H](O)C=C4C[C@@H](O)CC[C@@]43C)[C@@H]1CC[C@@H]2O [7-hydroxy-ADIOL] :: 88
C[C@]12CC[C@H](O)C[C@@H]1C[C@@H](O)[C@@H]1[C@@H]2CC[C@]2(C)[C@@H](O)CC[C@@H]12 :: 83
CC(=O)[C@H]1CC[C@H]2[C@@H]3C(=O)C=C4C[C@@H](O)CC[C@]4(C)[C@H]3CC[C@]12C [Steroid 7-oxo-PREG, 3-beta-hydroxy-5-pregnen-7,20-dione] :: 35
C[C@]12CC[C@H](O)CC1=C[C@H](O)[C@@H]1[C@@H]2CC[C@]2(C)C(=O)CC[C@@H]12 [7β-hydroxy-DHEA] :: 80
CC(=O)[C@H]1CC[C@H]2[C@@H]3[C@@H](O)C=C4C[C@@H](O)CC[C@]4(C)[C@H]3CC[C@]12C [Steroid 7β-OH-PREG, 7-beta-hydroxy-pregnenolone] :: 82
C[C@]12CC[C@H](O)C[C@@H]1C[C@H](O)[C@@H]1[C@@H]2CC[C@]2(C)C(=O)CC[C@@H]12 :: 68

Data provenance is patent US5763433A.
